The measurements presented in this section are drawn from ChEMBL document CHEMBL1135505.

- testTarget: UniProt P11229
- Sequence (P11229 whole entry): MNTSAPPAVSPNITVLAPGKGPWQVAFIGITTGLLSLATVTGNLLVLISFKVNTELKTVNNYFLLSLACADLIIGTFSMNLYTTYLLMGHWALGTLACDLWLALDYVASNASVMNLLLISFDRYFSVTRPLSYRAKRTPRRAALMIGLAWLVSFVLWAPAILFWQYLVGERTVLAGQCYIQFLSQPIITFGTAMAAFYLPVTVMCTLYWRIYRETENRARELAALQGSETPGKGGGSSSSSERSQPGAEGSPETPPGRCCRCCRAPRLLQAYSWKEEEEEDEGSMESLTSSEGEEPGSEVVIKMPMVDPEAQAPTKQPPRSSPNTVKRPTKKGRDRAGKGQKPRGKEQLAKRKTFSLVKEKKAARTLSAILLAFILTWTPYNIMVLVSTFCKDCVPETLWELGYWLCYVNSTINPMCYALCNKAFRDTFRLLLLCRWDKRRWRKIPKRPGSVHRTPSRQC
- protocolDetails: Inhibition of [3H]NMS binding to human muscarinic acetylcholine receptor M1 in transfected CHO cells.
Just a reminder that ties go to Condition not met: only Ki strictly below 5 µM counts as Condition met.

Completed entries (count: 3):
- CCOC(=O)c1c(CC)n(Cc2ccccc2)c2ccc3c(c12)CN1CCc2cc(OC)ccc2C1O3 (stereo not given): Condition met
- CCCCCc1[nH]c2ccc3c(c2c1C(=O)OCC)CN1CCc2cc(OC)ccc2C1O3 (stereo not given): Condition not met
- CCOC(=O)c1c(C)n(CC)c2ccc3c(c12)CN1CCc2cc(OC)ccc2C1O3 (stereo not given): Condition met

INPUT: Take the compound CCOC(=O)c1c(CC)n(C)c2ccc3c(c12)CN1CCc2cc(OC)ccc2C1O3 (stereo not given) and say whether its Ki is less than 5 µM.
OUTPUT: Condition met

###

Listing: Ki of selected compounds
- testTarget: Muscarinic acetylcholine receptor M5 (Homo sapiens)
- Sequence (P08912 whole entry): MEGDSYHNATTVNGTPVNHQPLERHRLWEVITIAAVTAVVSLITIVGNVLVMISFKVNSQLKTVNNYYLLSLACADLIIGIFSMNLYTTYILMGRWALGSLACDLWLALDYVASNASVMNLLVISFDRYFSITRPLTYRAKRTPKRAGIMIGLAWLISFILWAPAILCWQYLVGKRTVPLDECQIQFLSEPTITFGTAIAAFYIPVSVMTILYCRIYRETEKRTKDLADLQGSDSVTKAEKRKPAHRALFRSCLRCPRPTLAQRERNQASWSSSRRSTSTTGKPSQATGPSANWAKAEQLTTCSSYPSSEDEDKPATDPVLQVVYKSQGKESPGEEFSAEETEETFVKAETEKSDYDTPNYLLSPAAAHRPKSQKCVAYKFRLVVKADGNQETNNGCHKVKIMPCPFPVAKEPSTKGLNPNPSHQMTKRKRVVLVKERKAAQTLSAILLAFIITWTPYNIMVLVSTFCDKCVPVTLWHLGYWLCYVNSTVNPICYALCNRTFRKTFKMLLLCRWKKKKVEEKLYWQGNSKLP
- protocolDetails: Inhibition of [3H]NMS binding to human muscarinic acetylcholine receptor M5 in transfected CHO cells.

Solved entries (count: 3):
- CCCCCCc1[nH]c2ccc3c(c2c1C(=O)OCC)CN1CCc2cc(OC)ccc2C1O3 (stereo not given): > 28.2 µM
- C=CCOC(=O)c1c(C)n(Cc2ccc(OC)cc2)c2ccc3c(c12)CN1CCc2cc(OC)ccc2C1O3 (stereo not given): 0.501 µM
- CCOC(=O)c1c(C)[nH]c2ccc3c(c12)CN1CCc2cc(O)ccc2C1O3 (stereo not given): > 28.2 µM

INPUT: Endpoint output: Ki of COC(=O)c1c(C)n(C)c2ccc3c(c12)CN1CCc2cc(OC)ccc2C1O3 (stereo not given) . Value?
OUTPUT: 3.63 µM

INPUT: Endpoint output: Ki of CCCCCc1[nH]c2ccc3c(c2c1C(=O)OCC)CN1CCc2cc(OC)ccc2C1O3 (stereo not given) . Value?
OUTPUT: 5.37 µM

###

- testTarget: Muscarinic acetylcholine receptor M2 (Homo sapiens, UniProt P08172)
- Sequence (P08172 whole entry): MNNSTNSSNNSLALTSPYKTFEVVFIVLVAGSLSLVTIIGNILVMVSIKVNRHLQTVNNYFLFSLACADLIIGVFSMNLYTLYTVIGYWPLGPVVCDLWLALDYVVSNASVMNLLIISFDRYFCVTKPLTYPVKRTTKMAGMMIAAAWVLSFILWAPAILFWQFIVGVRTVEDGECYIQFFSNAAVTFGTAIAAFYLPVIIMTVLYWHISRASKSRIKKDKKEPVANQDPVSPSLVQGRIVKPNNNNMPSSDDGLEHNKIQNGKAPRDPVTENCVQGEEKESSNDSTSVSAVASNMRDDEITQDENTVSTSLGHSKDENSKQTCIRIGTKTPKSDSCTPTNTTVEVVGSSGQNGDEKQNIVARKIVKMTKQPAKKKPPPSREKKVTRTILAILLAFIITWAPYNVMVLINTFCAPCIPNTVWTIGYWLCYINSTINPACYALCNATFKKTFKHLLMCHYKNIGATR
- protocolDetails: Inhibition of [3H]-NMS binding to human muscarinic acetylcholine receptor M2 in transfected CHO cells.
Listing: Ki of selected molecules
Give the number; µM is assumed, so skip it.

* COc1ccc2c(c1)CCN1Cc3c(ccc4[nH]c(C)c(Cc5ccccc5)c34)OC21 (centres undefined) | 5.37
* C=CCOC(=O)c1c(C)n(Cc2ccc(OC)cc2)c2ccc3c(c12)CN1CCc2cc(OC)ccc2C1O3 (centres undefined) | 0.24
* CCCCc1[nH]c2ccc3c(c2c1C(=O)OCC)CN1CCc2cc(SC)ccc2C1O3 (centres undefined) | 2.19

Kindly consider the entry below.
INPUT: Endpoint output: Ki of CCCCc1[nH]c2ccc3c(c2c1C(=O)OCC)CN1CCc2cc(OC)ccc2C1O3 (centres undefined) . Value?
OUTPUT: 0.339
